Experiment: UV filtering parameters of cosmetic formulation on PMMA plates (modified Diffey-Robson)
Type: physicochemical
Conditions: 1% in formulation
Result type: SPF
Numbers only.

Sample records with SPF:
O=S(=O)(O)c1ccc2[nH]c(-c3ccccc3)nc2c1 [PBSA, reference compound] | 3.22
c1c[nH]c(-c2nc3ccccc3[nH]2)c1 | 2.44
c1csc(-c2nc3ccccc3[nH]2)c1 | 2.41

Continue with the next compound.
c1coc(-c2nc3ccccc3[nH]2)c1 has a reported SPF of 6.84

---

I'd be grateful if you could share measured DPPH (% Inhibition) for these entries.
Assay: DPPH radical scavenging test
Conditions: tested at 1 mg/mL; mean ± SEM
Give bare numbers, in %.

O=S(=O)(O)c1ccc2[nH]c(-c3cccs3)nc2c1 | 12.52

# batch: return DPPH (% Inhibition) for each of the 2 compounds below
1. c1coc(-c2nc3ccccc3[nH]2)c1
2. c1csc(-c2nc3ccccc3[nH]2)c1

Result string:
15.46
35.05

---

Test: UV filtering parameters of cosmetic formulation on PMMA plates (modified Diffey-Robson)
Format: physicochemical
Details: 3% in formulation
Result type: UVA/UVB
Answers are plain numbers.

Some entries whose results are on file:
c1c[nH]c(-c2nc3ccccc3[nH]2)c1 | 0.75
O=S(=O)(O)c1ccc2[nH]c(-c3ccccc3)nc2c1 [PBSA, reference compound] | 0.25
c1csc(-c2nc3ccccc3[nH]2)c1 | 0.69

Consider the additional compound presented here.
Recorded result, c1coc(-c2nc3ccccc3[nH]2)c1 , UVA/UVB: 0.18

---

Experiment: UV filtering parameters of cosmetic formulation on PMMA plates (modified Diffey-Robson)
Format: physicochemical
Conditions: 2% in formulation
Result type: UVA/UVB
Give bare numbers.

Some compounds with known UVA/UVB results, for comparison:
c1csc(-c2nc3ccccc3[nH]2)c1 [Compound 12, 2-(thiophen-2-yl)-1H-benzimidazole] | 0.70
O=S(=O)(O)c1ccc2[nH]c(-c3ccccc3)nc2c1 [PBSA, reference compound] | 0.22
c1coc(-c2nc3ccccc3[nH]2)c1 [Compound 11, 2-(furan-2-yl)-1H-benzimidazole] | 0.13

Switching to the query record.
Form: compound = c1c[nH]c(-c2nc3ccccc3[nH]2)c1 [Compound 10, 2-(1H-pyrrol-2-yl)-1H-benzimidazole] ; UVA/UVB = 0.73

---

So I've got a bunch of compounds here, and I need their pEC50 values.
System: herpes simplex virus-1 (KOS)
Assay: Antiviral activity in HEL cell cultures (CPE, MTS)
Format: cell-based
Settings: Human alphaherpesvirus 1, HEL cells
pEC50: −log10 of the molar value.

Each compound below has a recorded value; state its pEC50.
1. O=C(O)c1ccc2[nH]c(-c3ccc[nH]3)nc2c1
2. c1c[nH]c(-c2nc3ccccc3[nH]2)c1
3. c1coc(-c2nc3ccccc3[nH]2)c1
4. O=C(O)c1ccc2nc(-c3ccco3)[nH]c2c1
5. O=C(O)c1ccc2[nH]c(-c3cccs3)nc2c1
6. O=S(=O)(O)c1ccc2[nH]c(-c3ccc[nH]3)nc2c1
7. Nc1nc(O)c2ncn(COC(CO)CO)c2n1 [Ganciclovir, reference compound]

Result string:
< 4.00
< 4.00
< 4.00
< 4.00
< 4.00
< 4.00
8.00

Could you tell me pEC50 for each of these compounds? They are listed below.
1. c1csc(-c2nc3ccccc3[nH]2)c1
2. Nc1nc2c(ncn2COCCO)c(=O)[nH]1 [Acyclovir, reference compound]
3. Nc1ccn(C[C@@H](CO)OCP(=O)(O)O)c(=O)n1 [Cidofovir, reference compound]
4. O=S(=O)(O)c1ccc2[nH]c(-c3ccco3)nc2c1
5. O=S(=O)(O)c1ccc2[nH]c(-c3cccs3)nc2c1

Result string:
["< 4.00", 6.22, 5.35, "< 4.00", "< 4.00"]

Quick note, pEC50 for O=c1[nH]c(=O)n([C@H]2C[C@H](O)[C@@H](CO)O2)cc1/C=C/Br [Birivudin, Brivudin, reference compound] landed at 8.00

---

System: vaccinia virus
Assay: microbe, parasite or virus in culture
Assay type: cell-based
Conditions: Orthopoxvirus vaccinia, HEL, read-out: Antiviral EC50
For each of the molecules below, state its EC50.

O=C(O)c1ccc2[nH]c(-c3cccs3)nc2c1 | > 100 µM
O=S(=O)(O)c1ccc2[nH]c(-c3ccco3)nc2c1 | > 100 µM
c1c[nH]c(-c2nc3ccccc3[nH]2)c1 | > 100 µM
Nc1nc2c(ncn2COCCO)c(=O)[nH]1 [Acyclovir, reference compound] | > 250 µM
c1coc(-c2nc3ccccc3[nH]2)c1 | > 100 µM
Nc1nc(O)c2ncn(COC(CO)CO)c2n1 [Ganciclovir, reference compound] | > 100 µM
O=C(O)c1ccc2nc(-c3ccco3)[nH]c2c1 | > 100 µM
O=S(=O)(O)c1ccc2[nH]c(-c3cccs3)nc2c1 | > 100 µM
Nc1ccn(C[C@@H](CO)OCP(=O)(O)O)c(=O)n1 [Cidofovir, reference compound] | 50 µM
c1csc(-c2nc3ccccc3[nH]2)c1 | > 100 µM

Record EC50 for all entries; do not skip any.
1. O=c1[nH]c(=O)n([C@H]2C[C@H](O)[C@@H](CO)O2)cc1/C=C/Br [Birivudin, Brivudin, reference compound]
2. O=S(=O)(O)c1ccc2[nH]c(-c3ccc[nH]3)nc2c1
3. O=C(O)c1ccc2[nH]c(-c3ccc[nH]3)nc2c1

Result string:
1. 5.8 µM
2. > 100 µM
3. > 100 µM

---

For each entry below, report its λc value.
Assay: UV filtering parameters of cosmetic formulation on PMMA plates (modified Diffey-Robson)
Type: physicochemical
Details: 2% in formulation

For orientation, consider the following solved cases.
c1c[nH]c(-c2nc3ccccc3[nH]2)c1 | 357 nm
c1csc(-c2nc3ccccc3[nH]2)c1 | 342 nm
c1coc(-c2nc3ccccc3[nH]2)c1 | 366 nm

We now examine a further compound.
So for O=S(=O)(O)c1ccc2[nH]c(-c3ccccc3)nc2c1 [PBSA, reference compound] , the logged λc turned out to be 321 nm

---

Test: DPPH radical scavenging test
Details: tested at 1 mg/mL; mean ± SEM
For each of the compounds below, state its DPPH (% Inhibition).

Examples from the recorded data:
O=C(O)c1ccc2[nH]c(-c3ccc[nH]3)nc2c1 | 33.00 ± 1.28%
O=C(O)c1ccc2[nH]c(-c3cccs3)nc2c1 | 30.23 ± 1.45%

Shifting focus to the compound that follows.
According to the records, this compound O=S(=O)(O)c1ccc2[nH]c(-c3ccco3)nc2c1 displays DPPH (% Inhibition) of 10.96 ± 0.56%

The origin of these recorded values is paper PMC7570844.
